Tested on: Klebsiella pneumoniae
experimental-details: Antibacterial activity against Klebsiella pneumoniae ATCC 13883 assessed as fold reduction of MIC in presence of efflux pump inhibitor PAbetaN incubated for 18 hrs by broth microdilution method
Format: functional
Listed here: items and their measured fold change (FC).
// response body must contain only the number

Observe how each entry below is paired with its result.
{"columns": ["molecule-smiles", "experimental-target", "fold change (FC)"],
 "data": [
  ["C[Si]1(C)OB(O)c2ccc(F)c(F)c21", "Klebsiella pneumoniae", 16],
  ["C[Si]1(C)OB(O)c2cccc(F)c21", "Klebsiella pneumoniae", 16],
  ["C[Si]1(C)OB(O)c2ccc(Cl)c(Cl)c21", "Klebsiella pneumoniae", 32],
  ["C[Si]1(C)OB(O)c2cc(C=O)cc(F)c21", "Klebsiella pneumoniae", 8]
]}

QUERY: // query fold change (FC) value for entry `C[Si]1(C)OB(O)c2ccc(F)cc21`
RESULT: 8

QUERY: So what's the measured fold change (FC) for this one? `C[Si]1(C)OB(O)c2cc(B(O)O)cc(F)c21`
RESULT: 8

QUERY: Look up fold change (FC): `C[Si]1(C)OB(O)c2cccc(B(O)O)c21`
RESULT: 4

====

System: Klebsiella pneumoniae
experimental-details: Inhibition of beta lactamase KPC-3 in Klebsiella pneumoniae 83 assessed as potentiation of ceftazidime-induced antibacterial activity by measuring ceftazidime MIC at 16 mg/L incubated for 18 hrs by broth dilution method (reference value: >[…] mg/L)
property: MIC (µg/mL)
Give the number; µg/mL is assumed, so skip it.

{"columns": ["molecule-smiles", "MIC / µg/mL"],
 "data": [
  ["C[Si]1(C)OB(O)c2ccc(B(O)O)cc21", 64],
  ["C[Si]1(C)OB(O)c2c(F)c3c(c(F)c21)B(O)OC3", 64]
]}

Here is another molecule to look at.
QUERY: Please report the recorded MIC for `OB(O)c1ccccc1` .
RESULT: 16

====

Below, each of the compounds is paired with its reported MIC value.
Tested on: Klebsiella pneumoniae
experimental-details: Inhibition of beta lactamase KPC-3 in Klebsiella pneumoniae 81 assessed as potentiation of ceftazidime-induced antibacterial activity by measuring ceftazidime MIC at 16 mg/L incubated for 18 hrs by broth dilution method (reference value: >[…] mg/L)
Field format: number, assumed µg/mL, no unit text.

Use these answered entries as a reference point.
{"columns": ["molecule-smiles", "MIC (µg/mL)"],
 "data": [
  ["C[Si]1(C)OB(O)c2ccc(F)c(F)c21", 64],
  ["C[Si]1(C)OB(O)c2cc3c(c(F)c21)COB3O", 64],
  ["OB(O)c1ccccc1", 16],
  ["C[Si]1(C)OB(O)c2c(F)c3c(c(F)c21)B(O)OC3", 64]
]}

QUERY: Request body: readout MIC, system Klebsiella pneumoniae, query `C[Si]1(C)OB(O)c2ccc(B(O)O)cc21` . Return the value.
RESULT: 64

QUERY: # value lookup — system Klebsiella pneumoniae, readout MIC, item `C[Si]1(C)OB(O)c2c(F)c(F)c(F)c(F)c21`
RESULT: 64

====

A collection of compounds and their measured viability at 72 h, 16 ug/ml
experimental-details: Cytotoxicity against human MRC5 cells assessed as cell viability at 16 ug/ml incubated for 72 hrs by MTT assay
Type: cell-based
condition: read-out: Activity
Write down the value, and be sure its unit follows.

For orientation, consider the following solved cases.
{"columns": ["molecule-smiles", "property", "endpoint-result"],
 "data": [
  ["C[Si]1(C)OB(O)c2ccc(B(O)O)cc21", "viability at 72 h, 16 ug/ml", "120%"],
  ["C[Si]1(C)OB(O)c2cc3c(c(F)c21)COB3O", "viability at 72 h, 16 ug/ml", "100%"]
]}

Now, please, on to the next compound.
QUERY: Param item = `C[Si]1(C)OB(O)c2ccc(F)c(F)c21` ; retrieve measured viability at 72 h, 16 ug/ml.
RESULT: 99%
